Target: T1, 4H2760-bA
T1 chain: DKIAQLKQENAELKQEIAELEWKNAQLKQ
Assay: two-hybrid library CCNG1;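 note: natural log of median RNA to DNA barcode read ratio; higher means stronger binding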

| binder | interaction score |
| --- | --- |
| DKIAQLEQKNAELEQEIAELKWENAQLKQ [4H2444-bA] | 1.15 |
| DKIAQLEQKNAELKQENAELEWKIAQLKQ [4H2518-bA] | -0.635 |
| DKIAQLEQENAELEQKNAELKWEIAQLEQ [4H2233-bA] | -0.641 |
| DKIAQLEQEIAELKQENAELKWKNAQLEQ [4H2143-bA] | -0.549 |
| DEIAQLEQENAELKQKIAELKWENAQLEQ [4H235-bA] | 1.96 |
| DKIAQLEQEIAELKQKNAELEWEIAQLKQ [4H2162-bA] | -0.382 |
| DKIAQLKQENAELKQEIAELEWKNAQLKQ [4H2760-bA] | 0.895 |
